- testedTarget: human somatostatin receptor subtype 2 (Homo sapiens, UniProt P30874)
- Construct: expressed in transfected cells
- Sequence (P30874 whole entry): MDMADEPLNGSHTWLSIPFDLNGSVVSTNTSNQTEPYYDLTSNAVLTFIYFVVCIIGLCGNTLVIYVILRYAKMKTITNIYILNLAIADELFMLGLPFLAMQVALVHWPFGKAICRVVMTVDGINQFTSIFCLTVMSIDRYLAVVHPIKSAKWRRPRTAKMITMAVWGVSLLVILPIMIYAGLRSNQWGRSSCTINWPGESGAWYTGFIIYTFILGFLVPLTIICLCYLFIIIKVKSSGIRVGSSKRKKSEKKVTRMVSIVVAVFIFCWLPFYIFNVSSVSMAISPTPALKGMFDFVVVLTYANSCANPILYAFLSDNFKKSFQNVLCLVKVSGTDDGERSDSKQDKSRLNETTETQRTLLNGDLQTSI
- assayText: Functional cAMP assay for SSTR2 agonists (HTRF) in CHO-K1 cells
- Assay type: cell-based
- measurementConditions: CHO-K1 cells stably expressing human SST2, 20 min; read-out: hSST2 cAMP Avg EC50
- From the text: General overview: All five SSTR subtypes are Gi coupled G-protein coupled receptors (GPCRs) that lead to decreases in intracellular cyclic AMP (cAMP) when activated by an agonist. Therefore, measurement of intracellular cAMP levels can be used to assess whether compounds of the invention are agonists of SSTR subtypes (John Kelly, Troy Stevens, W. Joseph Thompson, and Roland Seifert, Current Protocols in Pharmacology, 2005, 2.2.1-2.2). One example of an intracellular cAMP assay is described below. […]
# EC50 per entry

1) CC[C@H](C)[C@@H]([C@@H](CC(=O)N1CCC[C@H]1[C@H](OC)[C@@H](C)C(=O)N[C@H](C)[C@@H](O)c1ccccc1)OC)N(C)C(=O)[C@@H](NC(=O)[C@H](C(C)C)N(C)C(=O)OCc1ccc(NC(=O)[C@H](CCCNC(N)=O)NC(=O)[C@@H](NC(=O)[C@H](CCC(=O)O)NC(=O)CCOCCOCCOCCOCCC(=O)NCCNc2ncc(-c3cc(C)cc(F)c3)c(N3CCC(N)CC3)c2-c2nc3ccc(Cl)cc3[nH]2)C(C)C)cc1C(=O)NC)C(C)C
0.16 nM
2) CC[C@H](C)[C@@H]([C@@H](CC(=O)N1CCC[C@H]1[C@H](OC)[C@@H](C)C(=O)N[C@H](C)[C@@H](O)c1ccccc1)OC)N(C)C(=O)[C@@H](NC(=O)[C@H](C(C)C)N(C)C(=O)OCc1ccc(NC(=O)[C@H](C)NC(=O)[C@@H](NC(=O)[C@H](CCC(N)=O)NC(=O)CCOCCC(=O)NCCNc2ncc(-c3cc(C)cc(F)c3)c(N3CCC(N)CC3)c2-c2nc3ccc(Cl)cc3[nH]2)C(C)C)cc1C(=O)NCCN)C(C)C
0.068 nM

EC50 lookup needed for CC[C@H](C)[C@@H]([C@@H](CC(=O)N1CCC[C@H]1[C@H](OC)[C@@H](C)C(=O)N[C@H](C)[C@@H](O)c1ccccc1)OC)N(C)C(=O)[C@@H](NC(=O)[C@H](C(C)C)N(C)C(=O)OCc1ccc(NC(=O)[C@H](CCCNC(N)=O)NC(=O)[C@@H](NC(=O)CCOCCNC(=O)CN2CCN(CC(=O)O)CCN(CC(=O)NCCOCCOCCOCCOCCC(=O)NCCNc3ncc(-c4cc(C)cc(F)c4)c(N4CCC(N)CC4)c3-c3nc4ccc(Cl)cc4[nH]3)CC2)C(C)C)cc1)C(C)C , thanks.
0.29 nM
